Target: T1, human IL-18BP (Homo sapiens, UniProt O95998)
T1 construct: His
T1 sequence (O95998 31-194): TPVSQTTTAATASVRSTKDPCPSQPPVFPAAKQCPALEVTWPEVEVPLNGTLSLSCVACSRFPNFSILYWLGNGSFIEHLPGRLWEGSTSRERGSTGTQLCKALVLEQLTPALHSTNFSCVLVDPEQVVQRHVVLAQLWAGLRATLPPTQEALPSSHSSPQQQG
Assay: IL-18BP binding alphaLISA assay (Example 4, used in Example 22B)
Conditions: IL-18BP AlphaLISA
Quick reference: pKd of the listed items.
pKd field: float, defined as -log10 of concentration (mol/L).

Sample answers from the record:
| Molecule | Quantitative readout |
| --- | --- |
| C176: IL-18 polypeptide: E6K, V11I, C38A, I49M, K53A, T63A, C76A, C127A (protein) YFGKLKSKLSIIRNLNDQVLFIDQGNRPLFEDMTDSDARDNAPRTIFIMSMYADSQPRGMAVAISVKCEKISTLSAENKIISFKEMNPPDNIKDTKSDIIFFQRSVPGHDNKMQFESSSYEGYFLAAEKERDLFKLILKKEDELGDRSIMFTVQNED | 7.59 |
| 62 (protein) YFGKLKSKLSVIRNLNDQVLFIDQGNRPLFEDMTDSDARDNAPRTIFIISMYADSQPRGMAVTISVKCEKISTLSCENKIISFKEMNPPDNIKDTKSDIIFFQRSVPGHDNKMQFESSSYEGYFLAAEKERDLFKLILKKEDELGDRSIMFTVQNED | 7.16 |
| C158: IL-18 polypeptide: V11I, C38A, K53A, C76A, G108A, C127A (protein) YFGKLESKLSIIRNLNDQVLFIDQGNRPLFEDMTDSDARDNAPRTIFIISMYADSQPRGMAVTISVKCEKISTLSAENKIISFKEMNPPDNIKDTKSDIIFFQRSVPAHDNKMQFESSSYEGYFLAAEKERDLFKLILKKEDELGDRSIMFTVQNED | 8.91 |

Now for the molecule whose pKd we want.
Suppose we examine the molecule C151: IL-18 polypeptide: V11I, D35A, C38A, K53A, C76A, C127A (protein) YFGKLESKLSIIRNLNDQVLFIDQGNRPLFEDMTASDARDNAPRTIFIISMYADSQPRGMAVTISVKCEKISTLSAENKIISFKEMNPPDNIKDTKSDIIFFQRSVPGHDNKMQFESSSYEGYFLAAEKERDLFKLILKKEDELGDRSIMFTVQNED ; what pKd value has been reported?
8.54
